Test: soluble on expression in E. coli; label from the status in PepcDB or PDB records
reported.property: soluble on expression in E. coli

MGSDKIHHHHHHMPTLPMPSFLSSYWESSFNLKQHIQEFLQLDAEILETKLEFGQQQMAELGHKDFDWEQATAFYRDKVGEVYLFELGAWHLASHDYIGDTLRLIADHAHGCVLDFGGGIGTHAIGAALCPHVEQVVYCDINPINFDFVKYRAEKLGLSEKIIFCVEIPPQKTFDTIMSFDVLEHLPDPSQQLLEFHQILADEGKMILNWHFFKGFNQEHPFHLDDPQAIDTFFKTIQSNCLEVFHPYHITARCYRKWN
not soluble
MTIPLHTITSFRATFNPFSRSARPCRLLLSLLRNPSTTPASSPTHIDIQVTQLPRHSTQPPEMTVGFRGGKEVKIEVGKKQMKIGDVIEELARVGRSIEREETLKG
not soluble
MGSDKIHHHHHHMTTFTAKFIDQEWEVPVESGRYHMIVGEFCPYAQRPQIARQLLGLDKHISISFVDDVPSDIGLIFSQPEQVTGAKSLRDIYHLTDPTYQGPYTIPILIDKTDNRIVCKESADLLRLFTTDFSDLHQEDAPVLFSQETASLIDNDIKDINKNFQSLMYKLAFLDKQADYDTYSKEFFTFLDQKEHLLGQRPFLLGDNLSEVDIHFFTPLVRWDIAGRDLLLLNQKALEDYPNIFSWAKTLYNDFNLKTLTNPQSIKNNYYLGKFGRAVRHHTIVPTGPNMAKWEK
not soluble

----------
Assay: soluble on expression in E. coli; label from the status in PepcDB or PDB records
reported.property: soluble on expression in E. coli

Some sequences with recorded soluble on expression in E. coli:
GAAASIQTTVNTLSERISSKLEQEANASAQTKCDIEIGNFYIRQNHGCNLTVKNMCSADADAQLDAVLSAATETYSGLTPEQKAYVPAMFTAALNIQTSVNTVVRDFENYVKQTCNSSAVVDNKLKIQNVIIDECYGAPGSPTNLEFINTGSSKGNCAIKALMQLTTKATTQIAPKQVAGTGVQ
soluble
MQPKLIILRGNSGSGKTTIANALHQCLKEQSLLISQDVVRREMLRVKDETGNLSIALLKQLVAFGYQECQYVIVEGIFQKAIYHSFFQEIIHLFEGNVQVYYFDISFEETLKRHSQRNKNQEFGVVEMKRWWLPEDYLGFPGEQRLSEQLSEKQIIRQILADIQ
not soluble
MGSDKIHHHHHHMSLSRNSDLHMHSTASDGGYSPTELMEKCHQANLKFVALTDHDTVNGIEEAKQTAHRLGFILIPGIELSTKASGQSVHMLGYGIDWKNDTLKRRLDRQQDIRKQRLEQILLKLKAAGVPLEQDAVLRYADGGAIGRPHVAKALMDKGYVRSVQEAFEHYLAEGRPCYVKRQEYISVEQAIAWIHQAGGVAIVAHPGYYDLDDQLIGWVREYGLDGIEVYHRDHSREVVAHYEQLCKRMEAETGRRLLRTGGSDFHHESYGRTAAPLGTTRIPDQLTYELLHDLERKKTRA
not soluble
MVGVRMTKKVLIVEDNELNMKLFHDLLEAQGYETLQTREGLSALSIARENKPDLILMDIQLPEISGLEVTKWLKEDDDLAHIPVVAVTAFAMKGDEERIREGGCEAYISKPISVVHFLETIKRLLERQPA
soluble
MGSDKIHHHHHHMKKLLNTLYVTRQETYVHKERDTIVINSAGEKLAQFPALTISNILCFGQVSVSPPMMGYCGENGIGLVFYTEYGRFLARMIGKQTGNVLLRRTQYRLADDPEKANAIARVMVGAKIANARTVLMREIRNHGEHANISRAVEQLGYSLKSCQFSQSVPQTMGIEGDAAATYFSVFNGLIRGSRFQFNGRIRRPATDPVNALLSFIYSLITQECVSALMGVGLDPYVGFLHQDRPGRPSLALDLLEEFRASWADRFVLTLLNRRQLSPQAFVTEASGAVRLTDDTRKQVLVAFQERKQEEVVHPYLQEKVPYGLLPHCQALLLARHLRGDMEFYTPYLIK
not soluble

Next:
Data request: // lookup soluble on expression in E. coli for MIDKQSGIPIYIQIQSEIKKKMEDGVWKVGTSIPAERQLAEMFHVSRMTVRQAIQGLVDDNILQRRVGAGTFIAEKKLTERLEAVTSFTNLMLQEGKVPSTRIVSYGIRPASTQEQEALQLPENSNVMKIERIRYGDRVPILYEVAAIPEKIASLLTKEDIMDSLYKAIELKLGQPIGEAEQIMEASLVSEKIAPYLDVKLGSPVMKLRQITTLEDGRPFEFTRSQYVGSRFQFVARIKQ
Data returned: not soluble

The origin of these recorded values is the DeepSol protein solubility set.
